- study_system: T1, human CD33 antigen (human, UniProt P20138 18-259, limits assumed)
- T1 construct: whole entry named; also called Siglec-3
- T1 sequence (P20138 18-259 limits assumed): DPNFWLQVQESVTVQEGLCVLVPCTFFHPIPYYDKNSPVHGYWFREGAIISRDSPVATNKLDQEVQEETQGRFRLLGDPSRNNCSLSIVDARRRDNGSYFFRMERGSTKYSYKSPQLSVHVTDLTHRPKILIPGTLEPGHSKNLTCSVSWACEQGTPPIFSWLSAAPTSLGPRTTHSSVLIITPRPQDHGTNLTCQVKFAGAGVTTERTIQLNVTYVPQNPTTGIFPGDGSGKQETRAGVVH
- assay_notes: SPR (Biacore T200), 37 C, scFv-Fc, 10 uM MTX
kon reference

P04_C09 scFv-Fc fusion (scFv, V domains shown, Tested as scFv-Fc fusion) VH: QVQLVESGGGLVQAGGSLRLSCAASRRSSRSWAMHWVRQAPGKGLEWVAVISYDGRLKYYADSVKGRFTISRDNAEYLVYLQMNSLRAEDTAVYYCAAEANESDSGGIDVWGQGTLVTVSS VL: DIQMTQSPSSLSASVGDRVTITCRASQTIGGYLNWYQQKPGKAPKLLIYAASSLQSGVPSRFSGSGSGTDFTLTISSLQPEDFATYYCQQGYSSGAFGQGTKVEIK
44000 M⁻¹ s⁻¹

// moving on: another record for kon
Field request: kon | item: P04_C05 scFv-Fc fusion (scFv, V domains shown, Tested as scFv-Fc fusion) VH: QVQLVESGGGLVQAGGSLRLSCAASRRSSRSWAMHWVRQAPGKGLEWVAVISYDGRLKYYADSVKGRFTISRDNAEYLVYLQMNSLRAEDTAVYYCAAGLPWTDYWGQGTLVTVSS VL: QSVLTQPPSASGTPGQRVTISCSGSNSNIGSNYVSWYQQLPGTAPKLLIYSNNQRPSGVPDRFSGSKSGTSASLAISGLRSEDEADYYCAAWDDRLSVVFGTGTKLTVL
45000 M⁻¹ s⁻¹
